Source: patent US9969744B2

# system_tested: PDE5A1 (Homo sapiens, UniProt O76074)
# Construct: they are full-length with N-terminal GST tag; GST (N)
# protocol: PDE enzyme activity assay (HTRF cGMP), PDE5A
# condition_description: recombinant enzyme; read-out: PDE5A1 inhibition (IC50)
pIC50: −log10 of the molar value.
measurement_type: pIC50

Reference set, count: 2
CCCc1nn(C)c2c(=O)[nH]c(-c3cc(Cc4ccc(C(=O)Nc5ccccc5N)s4)ccc3OCC)nc12 :: 6.00 to 8.00
CCCc1nn(C)c2c(=O)[nH]c(-c3cc(Cc4ccc(C(=O)Nc5cscc5N)cc4)ccc3OCC)nc12 :: 5.00 to 6.00

For the 3 compounds below, give their pIC50 values.
1. CCCc1nn(C)c2c(=O)[nH]c(-c3cc(C4CCC(C(=O)Nc5ccccc5N)CC4)ccc3OCC)nc12 (centres unmarked) [Example 1-06]
2. CCCc1nn(C)c2c(=O)[nH]c(-c3cc(S(=O)(=O)NCc4ccc(C(=O)Nc5ccccc5N)cc4)ccc3OCC)nc12
3. CCCc1nn(C)c2c(=O)[nH]c(-c3cc(CC(=O)Nc4ccccn4)ccc3OCC)nc12

[A]
1: 6.00 to 8.00; 2: 6.00 to 8.00; 3: 6.00 to 8.00
